Values were extracted from the supplement of paper PMC12764529.

// reported folding stability dG unfold for each item listed
Method description: folding stability dG unfold from chymotrypsin proteolysis; higher = more stable

Problem: Quick check: folding stability dG unfold of SAGGSSESKTVTAPDGRVLEFTKSLDPTSSNSRYTLTVYAPESGEPLREAEFSSEEEAEKYIAEGLGSAGGS [r8_450_JUSTAS] ?
Solution: 0.487 kcal/mol

Problem: Repeat with SAGGSAGLRVRLADGSELSVSPIPDKLRVVVTLPNGARIPIDVEDGELVEIVRDPAVPADFYIEEISAGGSA [r15_709_JUSTAS]
Solution: 1.25 kcal/mol

Problem: Cool, now SAGGSAPARIVLPGGRTRTLRLSEISPELLAAFPDVLVRLPGGEVRRLPADTLLSLEGDYTLVVPGSAGGSA [r15_733_TrMRF]
Solution: 0.573 kcal/mol
